test.system: human α5β3γ2 receptors (α5-GABAA receptor) (Homo sapiens (Human), UniProt P18507+P31644)
assay.explanation: 3H-flunitrazepam competition binding, human α5β3γ2 GABAA receptor
setup.conditions: HEK293 cell membranes, 1 nM 3H-flunitrazepam; read-out: α5-GABAAR Ki
Ki listing for selected compounds.
Hi! Could you send only the number? It should be in nM, unit omitted.

Ask | Given the compound Cc1nnn(-c2ccc(C(F)F)cc2)c1COc1ccc(N2CCN3c4ccccc4NC(=O)[C@@H]3C2)nn1 , write its reported Ki.
Reply | 2.46

###

test.system: α5-GABAA receptor (α5, β3, γ2 subunits) (Homo sapiens (Human), UniProt P18507+P31644)
assay.explanation: Whole cell patch clamp, inverse agonist efficacy in HEK293 cells expressing α5-GABAA receptor
Type: cell-based
setup.conditions: HEK293, drug 100 nM, GABA 0.05 μM, −60 mV; read-out: Compound inverse agonist efficacy %
Binary call on inhibition at 0.1 µM: 1 from 50% upward, 0 beneath that.

Examples with answers:
sample.smiles | group.label
Cc1nnn(-c2ccc(C(F)F)cc2)c1COc1ccc(N2CCN[C@@H](C(=O)O)C2)nn1 | 0
Cc1nnc([C@@H]2CN(c3ccc(OCc4c(C)nnn4-c4ccc(C(F)F)cc4)nn3)CCN2)o1 | 0
O=C1CN(c2ccc(OCc3c(Cl)nnn3-c3ccc(C(F)F)cc3)nn2)CCN1 | 0
Cc1nnn(-c2ccc(C(F)F)cc2)c1COc1ccc(N2CCN3CCNC(=O)[C@H]3C2)nn1 | 1
Cc1nnn(-c2ccc(C(F)F)cc2)c1COc1ccc(N2CCN(C)C(=O)C2)cn1 | 0

Ask | # check: inhibition at 0.1 µM of Cc1nnn(-c2ccc(C(F)F)cc2)c1COc1ccc(N2CC(C(=O)N3CCOCC3)C2)cn1 is greater than or equal to 50%
Reply | 0
